molecular target: CCD of HIV-1 IN and IBD of LEDGF/p75 (Human immunodeficiency virus type 1 group M subtype B); experiment: biochemical
MEASURE: pIC50
Notebook: values listed as pIC50 are -log10 of the concentration (mol/L).

// pIC50 value for Cc1ccc(C2CC2)c(-c2ccc3c(c2C)CCCO3)c1[C@H](OC1CC1)C(=O)O : 7.09

// pIC50 value for Cc1ccc(C2CC2)c(-c2ccc3c(c2C)CCCO3)c1[C@H](OC(C)(C)C)C(=O)O : 7.49

// pIC50 value for Cc1ccc(C2CC2)c(-c2cc(F)c3c(c2C)CCCO3)c1[C@H](OC1CC1)C(=O)O : 7.72

// pIC50 value for Cc1cc(NS(=O)(=O)CC2CCCCC2)c(C)c(C(OC(C)(C)C)C(=O)O)c1-c1ccc2c(c1)CCCO2 (stereo not shown) [S-I-82, reference compound] : 6.37

// pIC50 value for Cc1ccc(C2CC2)c(-c2ccc3c(c2)CCCO3)c1[C@H](OC1CC1)C(=O)O : 6.38

// pIC50 value for Cc1nc2ccccc2c(-c2ccc3c4c(ccnc24)CCO3)c1[C@H](OC(C)(C)C)C(=O)O [BI-224436, reference compound] : 7.14

// pIC50 value for Cc1ccc(C2CC2)c(-c2ccc3c(c2)CCCO3)c1[C@H](OC(C)(C)C)C(=O)O : 6.82
